System: MS2 coat protein
procedureSummary: apparent KD of MS2 coat protein; designed switch direction (-1 OFF switch, 1 ON switch): 1; higher = weaker reporter binding
settings: input ligand: microRNA oligo, concentration not stated
Recorded apparent KD of MS2 coat protein for the following sequences
Please reply with the bare figure in nM and do not write the unit itself.

Here is how some sequences turned out for apparent KD of MS2 coat protein.
chain	testedOn	quantitativeReadout
GGUGCAAUUAACGCCUACAUGAGGAUCACCCAUGUAUGUAGGCAGGAUAUCGUUUGCUUUGCAAACGAGAAGGGCUAUAGUACC [JL SSNG3 1.15] (Eterna round: R96, puzzle: Same State NG 3)	MS2 coat protein	130
CUUUUUCCUUUUACAUGAGGAUCACCCAUGUUUUCAUAUUGAGAGGAUAUCGUAUUUGGAAUUUUCGAGAAGGCUCAUUUGUAU [JR_SSNG3_Sub075] (Eterna round: R96, puzzle: Same State NG 3)	MS2 coat protein	25.5
GGCUGCGUUGUGAAGGAUAUCCGCGUCUGGACAUGAGGAUCACCCAUGUAUGCUUGGAUCGUGCCGGAGAAGGUCACGAAUGAUU [JR_SS002_Sub1213] (Eterna round: R96, puzzle: Same State 2)	MS2 coat protein	29.4
UUGCUCGUGUGAGGAUAUGCCGCCGUUUCGGCUGCAGAAGGUACUAUAAUACAUGAGGAUCACCCAUGUCUCUGUUGUUUCGUG [salish99_SSNG1_r04_932] (Eterna round: R96, puzzle: Same State NG 1)	MS2 coat protein	23.7
AGCUAAUACGAAGGAUAUACUGACAUGAGGAUCACCCAUGUCUACAUGAUUUAUUGUGAUCACAUGUAGAAGGUCGUACUAACA [SameState NG2 #23] (Eterna round: R96, puzzle: Same State NG 2)	MS2 coat protein	62.3
GUAGCAUACCGAGGAUAUUCAUAUUAACAUGAGGAUCACCCAUGUUUAGGUCGAUUACGACCUUGGGAGAAGGCGGAAUGCUAC [Xeonanis - 20 Mod33] (Eterna round: R96, puzzle: Same State NG 2)	MS2 coat protein	15.4
ACGUGAGGCGCAGGAUAUACAUGAGGAUCACCCGUAGAAGGGCGCACCCAUAACAUGAGGAUCACCCAUGUUGUCCAUGUCCAU [Same State NG 1 S5] (Eterna round: R96, puzzle: Same State NG 1)	MS2 coat protein	158
AGCGAACAGUCCUCAAAGGCAACAUGAGGAUCACCCAUGUCAUAGGAUAUGCUAAAAGCUCAGUAGCAGAAGGAUGGAGGACUG [Edatusbe] (Eterna round: R96, puzzle: Same State NG 3)	MS2 coat protein	28.1

Turning now to a further record.
Prompt: GET apparent KD of MS2 coat protein | system: MS2 coat protein | item: GCUCGAAUCAAAACCAACAUGAGGAUCACCCAUGUAUGUUGGUAGGAUAUCGUUUGCUUUGCAAACGAGAAGGACCAAACGAGC [SameState NG3 #2] (Eterna round: R96, puzzle: Same State NG 3)
Response: 67
